Study target: human pancreas-specific protein disulfide isomerase (PDIp) (Homo sapiens, UniProt Q13087, Q265L)
Sequence (Q13087 153-366 Q265L limits assumed): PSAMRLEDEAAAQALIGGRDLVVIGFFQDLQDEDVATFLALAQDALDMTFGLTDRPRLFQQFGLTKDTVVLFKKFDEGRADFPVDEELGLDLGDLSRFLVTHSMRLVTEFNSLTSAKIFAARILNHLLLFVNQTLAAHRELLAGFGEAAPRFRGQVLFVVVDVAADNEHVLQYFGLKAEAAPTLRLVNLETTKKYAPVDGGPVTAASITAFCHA
Test: [3H]E2 saturation radioligand binding
Readout: pKd
Please express pKd as -log10 of the molar concentration.

Data point: C[C@]12CC[C@@H]3c4ccc(O)cc4CC[C@H]3[C@@H]1CC[C@@H]2O [E2, Estradiol] ; pKd = 6.73
